Provenance of the data: ChEMBL document CHEMBL1201862

Tested on: SK-MEL-2
Assay: NCI tumour cell line growth inhibition, 48 h
Calls of active or inactive are those of the source. No stated cut-off is given here; in the data, active = GI50 up to about 1.1 µM and inactive = higher.

[
  {
    "molecule": "OCc1ccn2c1[C@@H](O)CC2",
    "GI50": "> 100 µM (inactive)"
  },
  {
    "molecule": "CN(C)CCCN1c2ccc3ccccc3c2Sc2cccc(Cl)c21",
    "GI50": "1.99 µM (inactive)"
  },
  {
    "molecule": "C=CCN1/C(=C2\\SC(=S)N(c3ccc(C)cc3)C2=O)Sc2c1ncn(C)c2=O",
    "GI50": "> 100 µM (inactive)"
  },
  {
    "molecule": "C/C(N)=[N+](/C)[O-]",
    "GI50": "> 100 µM (inactive)"
  },
  {
    "molecule": "CC(Oc1ccc(OCC2CCCCC2)cc1)C(=O)O (stereo unspecified)",
    "GI50": "> 100 µM (inactive)"
  },
  {
    "molecule": "N#C/C(=C1C=C(Br)/C(=N\\O)C=C\\1Cl)c1cccc2ccccc12",
    "GI50": "2.48 µM (inactive)"
  }
]

---

Tested on: HCT-116
Assay: NCI tumour cell line growth inhibition, 48 h
Calls of active or inactive are those of the source. No stated cut-off is given here; in the data, active = GI50 up to about 1.1 µM and inactive = higher.
Possible outcomes: yes (1) (active), no (0) (inactive)

[
  {
    "compound": "CCCOc1ccc(/C=C\\c2cc(OC)c(OC)c(OC)c2)cc1",
    "label-value": "no (0)"
  },
  {
    "compound": "O=C(O)c1ccc(/N=C(\\C(=N\\c2ccc(C(=O)O)cc2)c2ccccc2)c2ccccc2)cc1",
    "label-value": "no (0)"
  },
  {
    "compound": "OCc1ccn2c1[C@@H](O)CC2",
    "label-value": "no (0)"
  },
  {
    "compound": "COc1cc(-c2cc(=O)c3c(OC)c(OC)c(OC)cc3o2)c(OC)c(OC)c1OC",
    "label-value": "no (0)"
  },
  {
    "compound": "CCOC(=O)c1c(N2CCCC2)nsc1Nc1ccccc1",
    "label-value": "no (0)"
  },
  {
    "compound": "Oc1nc(-c2ccccc2)cc(-c2ccccc2O)n1",
    "label-value": "no (0)"
  },
  {
    "compound": "CN1CC[C@]23c4c5ccc(O)c4OC2c2[nH]ncc2C[C@H]3[C@H]1C5 (stereo partly specified)",
    "label-value": "no (0)"
  },
  {
    "compound": "C#CCn1c(=O)c(Cl)cn(/C(=C/C(=O)OCC)C(=O)OCC)c1=O",
    "label-value": "no (0)"
  },
  {
    "compound": "CC(CO)CCC(O)C(C)(O)C1CCC2(O)C3=CC(=O)C4CC(O)C(O)CC4(C)C3CCC12C (stereo unspecified)",
    "label-value": "no (0)"
  },
  {
    "compound": "O=C1CCC(=O)N1n1c(Cc2ccc(Cl)cc2)n[nH]c1=O",
    "label-value": "no (0)"
  },
  {
    "compound": "O=C(CC1(O)C(=O)Nc2ccccc21)c1cccc(O)c1 (stereo unspecified)",
    "label-value": "no (0)"
  },
  {
    "compound": "COc1ccc(/C=C/c2cc(=O)cc(/C=C/c3ccc(OC)c(O)c3)o2)cc1O",
    "label-value": "no (0)"
  },
  {
    "compound": "Cn1c2c3c(F)c(F)ccc3nc-2cc2ccccc21",
    "label-value": "yes (1)"
  },
  {
    "compound": "C/C(CN1C(=O)c2ccccc2C1=O)=N\\NS(=O)(=O)c1ccc(C)cc1",
    "label-value": "no (0)"
  },
  {
    "compound": "CCOC(=O)CCC(NC(=O)c1ccc(OCc2ccc3nc(-c4ccccc4)c(Cl)nc3c2)cc1)C(=O)OCC (stereo unspecified)",
    "label-value": "no (0)"
  },
  {
    "compound": "c1ccc2c(c1)CCN(C1=NCCO1)C2",
    "label-value": "no (0)"
  },
  {
    "compound": "CC(=O)OCC1OC(n2cc(F)c(=O)[nH]c2=O)C(N)C(OC(C)=O)C1OC(C)=O (stereo unspecified)",
    "label-value": "no (0)"
  },
  {
    "compound": "O=C1/C=C(/c2ccc(O)cc2)[C@@H](O)Cc2ccc(O)cc2O1",
    "label-value": "no (0)"
  },
  {
    "compound": "CC(NC(=O)/C(C#N)=C/c1ccc2[nH]ccc2c1)c1ccccc1 (stereo unspecified)",
    "label-value": "no (0)"
  },
  {
    "compound": "CCOC(=O)[C@@H]1ON2O[C@@H](OC3CCCC3(c3ccccc3)c3ccccc3)C[C@H]3OC(=O)[C@@H]1C32 (stereo partly specified)",
    "label-value": "no (0)"
  },
  {
    "compound": "Cc1ccc([N+](=O)[O-])c2c(NCCC[N+](C)(C)[O-])c3ccccc3nc12",
    "label-value": "no (0)"
  }
]

---

Test system: NCI-H522
Assay: NCI tumour cell line growth inhibition, 48 h
Active and inactive are the calls of the source. No stated cut-off is given here; in the data, active = GI50 up to about 1.1 µM and inactive = higher.
Possible outcomes: TRUE for active, FALSE for inactive

[
  {
    "compound": "O=C1C(c2ccc(C3=[N+]([O-])c4cc([N+](=O)[O-])ccc4C3=O)cc2)=[N+]([O-])c2cc([N+](=O)[O-])ccc21",
    "label-value": "FALSE"
  },
  {
    "compound": "N#CCCN(CCN(C(=O)Nc1ccccc1)c1ccccc1)C(=O)Nc1ccccc1",
    "label-value": "FALSE"
  },
  {
    "compound": "C#C[C@]1(O)CC[C@H]2[C@@H]3CCC4=C/C(=N\\OCCN5CCCC5)CC[C@]4(C)[C@H]3CC[C@@]21C",
    "label-value": "FALSE"
  },
  {
    "compound": "CCOC(=O)NC/C=C/CO",
    "label-value": "FALSE"
  },
  {
    "compound": "COc1ccc(C(=O)N/N=C/c2c(C)n(C)n(-c3ccccc3)c2=O)cc1",
    "label-value": "FALSE"
  },
  {
    "compound": "C[S+]([O-])c1cc(=O)c2ccccc2s1 (centres undefined)",
    "label-value": "FALSE"
  },
  {
    "compound": "Cc1ccc(N2C(=O)C3c4[nH]c5ccc(C)cc5c4C4CCC(C(C)(C)C)CC4C3C2=O)cc1 (centres undefined)",
    "label-value": "FALSE"
  },
  {
    "compound": "COC1=CC(=O)c2c(cc(COP(=O)(OCC3OC(n4cc(F)c(=O)[nH]c4=O)CC3O)N(C)CCCCCl)n2C)C1=O (centres undefined)",
    "label-value": "TRUE"
  },
  {
    "compound": "O=C1c2cccc([N+](=O)[O-])c2C(=O)c2nccnc21",
    "label-value": "FALSE"
  }
]

---

Tested on: U-251
Assay: NCI tumour cell line growth inhibition, 48 h
Active and inactive are the calls of the source. No stated cut-off is given here; in the data, active = GI50 up to about 1.1 µM and inactive = higher.

[
  {
    "molecule": "CN1CCC(O)(C(C)(C)C)CC1",
    "assay-system": "U-251",
    "GI50": "> 100 µM (inactive)"
  },
  {
    "molecule": "Oc1c(C(O)c2ccccn2)ccc2ccccc12 (stereo unspecified)",
    "assay-system": "U-251",
    "GI50": "52 µM (inactive)"
  },
  {
    "molecule": "COc1ccc2c(c1)C1c3ccccc3CCN1CCC2 (stereo unspecified)",
    "assay-system": "U-251",
    "GI50": "32.6 µM (inactive)"
  },
  {
    "molecule": "C[n+]1c(-c2ccc(/C=N\\N3CCN(/N=C/c4ccc(-c5cn6ccccc6[n+]5C)cc4)CC3)cc2)cn2ccccc21",
    "assay-system": "U-251",
    "GI50": "27.1 µM (inactive)"
  },
  {
    "molecule": "Cc1c(-c2coc(-c3ccc(Cl)cc3)n2)c(=O)n(-c2ccccc2)n1C",
    "assay-system": "U-251",
    "GI50": "> 100 µM (inactive)"
  },
  {
    "molecule": "COC1CCCCN1C(=O)c1ccccc1 (stereo unspecified)",
    "assay-system": "U-251",
    "GI50": "> 25.3 µM (inactive)"
  },
  {
    "molecule": "O=C(Nc1nc2ncn(CCNCc3ccccc3)c2c(=O)[nH]1)c1ccccc1",
    "assay-system": "U-251",
    "GI50": "> 100 µM (inactive)"
  },
  {
    "molecule": "CCOC(=O)CNC(=O)C(CSCC1C(=O)Nc2ccccc21)NC(=O)CCC(N)C(=O)OCC (stereo unspecified)",
    "assay-system": "U-251",
    "GI50": "1.31 µM (inactive)"
  },
  {
    "molecule": "CN(/N=C\\c1ccc2ccccc2c1)C1=NCCN1",
    "assay-system": "U-251",
    "GI50": "18 µM (inactive)"
  },
  {
    "molecule": "O=P12N(CCN1c1ccccc1)CCN2c1ccccc1",
    "assay-system": "U-251",
    "GI50": "> 100 µM (inactive)"
  },
  {
    "molecule": "O=c1c(C(c2ccc3c(c2)Cc2ccccc2-3)c2c(O)oc3ccccc3c2=O)c(O)oc2ccccc12",
    "assay-system": "U-251",
    "GI50": "23.9 µM (inactive)"
  }
]
